Reference for the values: patent US20250090676A1

target: T1, human FOLR1-HIS (human, UniProt P15328 25-233); test: SPR (Biacore), antibody captured on anti-Fc, human FOLR1-HIS analyte, 25 C
T1 construct: Analyte of the Biacore assay; also called FolRα-ECD; extracellular domain of FOLR1; not shown: HIS tag
T1 sequence (P15328 25-233 limits assumed): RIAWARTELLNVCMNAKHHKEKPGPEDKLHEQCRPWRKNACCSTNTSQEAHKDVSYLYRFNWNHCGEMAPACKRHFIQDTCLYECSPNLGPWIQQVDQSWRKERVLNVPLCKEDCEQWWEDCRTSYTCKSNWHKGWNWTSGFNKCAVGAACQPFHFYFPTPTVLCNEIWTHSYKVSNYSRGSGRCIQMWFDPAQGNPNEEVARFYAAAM
Experimental Endpoint: kon (M⁻¹ s⁻¹)
Answer format: numeric, M⁻¹ s⁻¹ implied, no suffix.

Consider the worked cases shown below.
Could you tell me which kon is on file for SRP2060-E05 (antibody, V domains shown, also called Antibody 57) VH: EVQLLESGGGLVQPGGSLRLSCAFSGFSLSTFGMGVGWVRQAPGKGLEWVSHIWWDDDKYYHPALKGRFTVSKDNSKNTVYLQMNSLRAEDTAVYYCGRNHFPHYYGSSHWYFNVWGQGTTVTVSS VL: EIVMTQSPATLSLSPGERATLSCKASQDINSYLSWYQQKPGQAPRLLIYRANRLVDGIPARFSGSGSGTDYTLTISSLEPEDFAVYYCLQYDEFPYTFGGGTKVEIK ?
541000

Look up kon: SRP2060-E10 (antibody, V domains shown, also called Antibody 56) VH: EVQLLESGGGLVQPGGSLRLSCAFSGFSLSTFGMGVGWVRQAPGKGLEWVSHIWWDDDKYYHPALKGRFTISKDNSKNTVYLQMNSLRAEDTAVYYCGRNHFPHYYGSSHWYFNVWGQGTTVTVSS VL: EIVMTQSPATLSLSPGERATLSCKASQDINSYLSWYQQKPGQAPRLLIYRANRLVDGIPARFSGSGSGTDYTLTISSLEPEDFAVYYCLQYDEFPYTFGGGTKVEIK
582000

Field request: kon | item: SRP2060-A06 (antibody, V domains shown, also called Antibody 59) VH: EVQLLESGGGLVQPGGSLRLSCAFSGFSLSTFGMGVGWVRQAPGKGLEWVGHIWWDDDKYYYPALKGRFTISKDNSKNTVYLQMNSLRAEDTAVYYCGRNHFPHYYGSSHWYFDVWGQGTTVTVSS VL: DIQMTQSPSTLSASVGDRVTITCKASQDINSYLSWYQQKPGKAPKLLIYRANRLVDGVPSRFSGSGSGTEFTLTISSLQPDDFATYYCLQYDEFPYTFGGGTKVEIK
547000

Now, please, on to the next binder.
Fill in: kon of SRP2060-B01 (antibody, V domains shown, also called Antibody 58) VH: EVQLLESGGGLVQPGGSLRLSCALSGFSLSTFGMGVGWVRQATGKGLEWVSHIWWDDDKYYHPALKGRFTISKDNSKNTVHLQMNSLRAEDTAVYYCGRNHFPHYYGSSHWYFNVWGQGTTVTVSS VL: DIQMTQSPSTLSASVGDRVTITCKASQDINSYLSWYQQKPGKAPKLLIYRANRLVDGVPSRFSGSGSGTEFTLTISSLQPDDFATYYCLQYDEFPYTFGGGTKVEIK is ___
561000
